tested on: HT-1080 cells; test: HT-1080 cell viability assay (ferroptosis induced by RSL3, Cell Titer-Glo); format: cell-based; settings: Homo sapiens, HT-1080, 20 h, ferroptosis inducer RSL3, 20 hours, ferroptosis inhibitory activity, Table 2
pEC50: −log10 of the molar value.
Test Readout: pEC50

Some compounds with recorded pEC50:
CC(C)C1CCN(c2ncc(NC3C4CC5CC3CC(N)(C5)C4)cn2)CC1 (stereo not shown) [Compound 368] = 7.00 to 10.00
c1cc(C2CCCCC2)ccc1NC1CNC1 [Compound 109, N-(4-cyclohexylphenyl)azetidin-3-amine] = 6.00 to 7.00
CC(C)(C)c1ccc(NC2CCC(NCC(O)CN)CC2)cc1 (stereo not shown) [Compound 349A] = 7.00 to 10.00
CCc1cc(NC2CCC(N)CC2)ccc1C(C)(C)C (stereo not shown) [Compound 329] = 7.00 to 10.00

// next item, pEC50 requested
Return reported pEC50. Input compound: CN1CC(C)(C)c2ccc(NC3CCC(N)CC3)cc21 (stereo not shown) [Compound 343] 7.00 to 10.00

###

test system: HT-1080 cells; experiment: HT-1080 cell viability assay (ferroptosis induced by RSL3, Cell Titer-Glo); type: cell-based; details: Homo sapiens, HT-1080, 20 h, ferroptosis inducer RSL3, 20 hours, ferroptosis inhibitory activity, Table 2
pEC50: −log10 of the molar value.
Recorded pEC50, one value per entry.

Please give measured pEC50 of the following entry: CCCc1ccc(NC2CCC(C)(N)CC2)cc1 (stereo not drawn) [Compound 278] 7.00 to 10.00

Identify measured pEC50 corresponding to Cc1nc(N2CC3CCC(C2)O3)ccc1NC1CC2(CC(N)C2)C1 (stereo not drawn) [Compound 486] 7.00 to 10.00

Dear colleague, please send me the reported pEC50 for CNC1CCC(Nc2ccc(C(C)(C)C)cc2)C1 (stereo not drawn) [Compound 194] when you can. 6.00 to 7.00

Specify measured pEC50 for CC1CN(c2ccc3cc(NC4CC5(CC(N)C5)C4)ccc3n2)CC(C)N1C(=O)C(F)(F)F (stereo not drawn) [Compound 566] . 7.00 to 10.00

Annotate the compound CC(C)(C)c1ccc(NC2CCC(C[N+](C)(C)C)CC2)cc1 (stereo not drawn) [Compound 258] with its measured pEC50. 5.00 to 6.00

In one line, give reported pEC50 of the entry CC(C)C1CCN(c2cnc(NC3CCC(N)CC3)cn2)CC1 (stereo not drawn) [Compound 399] . 7.00 to 10.00

Give the value of pEC50 reported for the following: CCOCCN(CCCCOC)CCNc1ccc(C(C)(C)C)cc1 [Compound 256] 5.00 to 6.00

Consider the compound Cc1cc(NC2CCC(CN)CC2)cc(C)c1C (stereo not drawn) [Compound 312] . State its measured pEC50. 7.00 to 10.00

Supply reported pEC50 belonging to this compound: CC1CN(c2ccc(NC3CC4(CC(N)C4)C3)c(F)c2)CC(C)O1 (stereo not drawn) [Compound 461] 7.00 to 10.00

Determine its reported pEC50: c1cc(C2CCCCC2)ccc1NC1CCNC1 (stereo not drawn) [Compound 108, N-(4-cyclohexylphenyl)pyrrolidin-3-amine] 6.00 to 7.00

Return pEC50 for the following compound: Cc1cc(NC2CCC(N)CC2)cc(C)c1C (single isomer, unassigned) [Compound 182A] 6.00 to 7.00

Specify reported pEC50 for the compound shown: CC(C)C1CCN(c2ncc(NC3CC4(CC(N)C4)C3)cn2)CC1 (stereo not drawn) [Compound 358] 7.00 to 10.00

Complete the entry with pEC50 for CC(C)C1CCN(c2ncc(NC[C@H]3CC[C@H](NC(=O)C4CNC(=O)C4)CC3)cn2)CC1 (stereo partly drawn) [Compound 367] 7.00 to 10.00

Determine from records and report pEC50 for CC(C)C1CCN(c2ncc(NC3CC4(CC(NCC(F)(F)F)C4)C3)cn2)CC1 (stereo not drawn) [Compound 414] 7.00 to 10.00

// fetch pEC50 given entry Cc1cc(N2CCCOCC2)ccc1NC1CC2(CC(N)C2)C1 (stereo not drawn) [Compound 465] 7.00 to 10.00

Give reported pEC50 value for CC1CN(c2ccc(NC[C@H]3CC[C@H](N)CC3)c(Cl)c2)CC(C)O1 (stereo partly drawn) [Compound 483] 7.00 to 10.00

State its pEC50 for this compound: CCN1C(C)CN(c2ccc(NC[C@H]3CC[C@H](N)CC3)cc2)CC1C (stereo partly drawn) [Compound 532] 6.00 to 7.00

Respond only with pEC50 recorded for NC1CCC(Nc2ccc(Cl)cc2)CC1 (stereo not drawn) [Compound 161] 5.00 to 6.00

Sourced from patent US20240360114A1
